Origin of measurements: ChEMBL document CHEMBL1221321

Recorded MIC, one value per entry.
Test system: Streptococcus pneumoniae
Experiment: Antibacterial activity against inducible resistance to macrolide and constitutive resistance to lincosamide Streptococcus pneumoniae 134 GR M by broth microdilution method
Type: functional

| compound | MIC |
| --- | --- |
| CC[C@H]1OC(=O)[C@H](C)[C@@H](O[C@H]2C[C@@](C)(OC)[C@@H](OCCCOCCCc3ccc4c(c3)c(=O)c(C(=O)O)cn4C(C)C)[C@H](C)O2)[C@H](C)[C@@H](O[C@@H]2O[C@H](C)C[C@H](N(C)C)[C@H]2O)[C@](C)(O)C[C@@H](C)CN(C)[C@H](C)[C@@H](O)[C@]1(C)O | < 0.125 µg/mL |
| CC[C@H]1OC(=O)[C@H](C)[C@@H](O[C@H]2C[C@@](C)(OC)[C@@H](OCCCOCCCc3ccc4c(c3)c(=O)c(C(=O)O)cn4CC)[C@H](C)O2)[C@H](C)[C@@H](O[C@@H]2O[C@H](C)C[C@H](N(C)C)[C@H]2O)[C@](C)(O)C[C@@H](C)CN(C)[C@H](C)[C@@H](O)[C@]1(C)O | ≤ 0.125 µg/mL |
| CC[C@H]1OC(=O)[C@H](C)[C@@H](O[C@H]2C[C@@](C)(OC)[C@@H](O)[C@H](C)O2)[C@H](C)[C@@H](O[C@@H]2O[C@H](C)C[C@H](N(C)C)[C@H]2O)[C@](C)(O)C[C@@H](C)CN(C)[C@H](C)[C@@H](O)[C@]1(C)O [AZITHROMYCIN] | > 64 µg/mL |
